Reference source: patent US20250340561A1

Test system: human G12D mutant KRAS-positive pancreatic cancer line AsPC-1
PROTOCOL TEXT: Test Example 3: non-anchorage-dependent cell growth inhibition, spheroid 3D cell culture
Type: cell-based
PROTOCOL CONDITIONS: Homo sapiens, ASPC1, 144 h, AsPC-1 spheroid 3D culture, 6 days, CellTiter Glo 2.0; read-out: IC50
Where a name gives a salt, the structure may show the parent alone.
OUTCOME MEASURE: IC50 (µM)

Worked examples, 2 compounds total:
>>> recorded_number("Cc1ncsc1-c1ccc([C@H](CO)NC(=O)[C@@H]2C[C@@H](O)CN2C(=O)[C@H](C(C)C)n2cc(-c3ccc(COc4c(-c5c(C)c(F)cc6[nH]ncc56)c(C5CC5)cc5c(N6C[C@@H]7C[C@H]6CN7)nc(OC[C@@H]6CCCN6C)nc45)cc3)nn2)cc1")
0.09
>>> recorded_number("Cc1c(F)cc2[nH]ncc2c1-c1c(C2CC2)cc2c(N3C[C@@H]4C[C@H]3CN4)nc(OC3CCOCC3)nc2c1OCc1ccc(-c2cn([C@H](C(=O)N3C[C@H](O)C[C@H]3C(=O)N[C@@H](CO)c3ccc(-c4scnc4CO)cc3)C(C)C)nn2)cc1 [Example 18, hydrochloride]")
0.07

A = Cc1ncsc1-c1ccc([C@H](CO)NC(=O)[C@@H]2C[C@@H](O)CN2C(=O)[C@H](C2CC2)n2cc(-c3ccc(COc4c(-c5c(C)c(F)cc6[nH]ncc56)c(C5CC5)cc5c(N6C[C@@H]7C[C@H]6CN7)nc(OC6CCOCC6)nc45)cc3)nn2)cc1
B = Cc1c(F)cc2[nH]ncc2c1-c1c(C2CC2)cc2c(N3C[C@@H]4C[C@H]3CN4)nc(OC3CCOCC3)nc2c1OCc1ccc(-c2cn([C@H](C(=O)N3C[C@H](O)C[C@H]3C(=O)N[C@@H](CO)c3ccc(-n4ccnc4C)cc3)C(C)C)nn2)cc1
Q. Of the two listed items, which has the higher IC50? First: A Second: B Bench note: the answer is the label of the chosen record.
A. A
(A: 0.112 µM, B: 0.064 µM)

* * *

Test system: human G12D mutant KRAS-positive pancreatic cancer line AsPC-1
PROTOCOL TEXT: Test Example 3: non-anchorage-dependent cell growth inhibition, spheroid 3D cell culture
Format: cell-based
PROTOCOL CONDITIONS: Homo sapiens, ASPC1, 144 h, AsPC-1 spheroid 3D culture, 6 days, CellTiter Glo 2.0; read-out: IC50
pIC50: −log10 of the molar value.
OUTCOME MEASURE: pIC50

a = CCn1nccc1-c1ccc([C@H](CO)NC(=O)[C@@H]2C[C@@H](O)CN2C(=O)[C@H](C(C)C)n2cc(-c3ccc(COc4c(-c5c(C)c(F)cc6[nH]ncc56)c(C5CC5)cc5c(N6C[C@@H]7C[C@H]6CN7)nc(OC[C@H](C)OC)nc45)cc3)nn2)cc1 [Example 70]
b = Cc1ncsc1-c1ccc([C@H](CO)NC(=O)[C@@H]2C[C@@H](O)CN2C(=O)[C@H](C(C)C)n2cc(-c3ccc(COc4c(-c5c(C)c(F)cc6[nH]ncc56)c(C5CC5)cc5c(N6C[C@@H]7C[C@H]6CN7)nc(NCCO)nc45)cc3)nn2)cc1 [Example 66]
c = Cc1ncsc1-c1ccc([C@H](CN(C)C)NC(=O)[C@@H]2C[C@@H](O)CN2C(=O)[C@H](C(C)C)n2cc(-c3ccc(COc4c(-c5c(C)c(F)cc6[nH]ncc56)c(C5CC5)cc5c(N6C[C@@H]7C[C@H]6CN7)nc(OC6CCOCC6)nc45)cc3)nn2)cc1 [Example 19]
d = COC[C@H](CN1CCOCC1)Oc1nc(N2C[C@@H]3C[C@H]2CN3)c2cc(C3CC3)c(-c3c(C)c(F)cc4[nH]ncc34)c(OCc3ccc(-c4cn([C@H](C(=O)N5C[C@H](O)C[C@H]5C(=O)N[C@@H](CO)c5ccc(-c6scnc6C)cc5)C(C)C)nn4)cc3)c2n1 [Example 55]
Q. Sort the entries above numerically by pIC50, high end first. Provide the labels, sequenced as the question asks.
A. a, d, c, b

* * *

Known DC50 of a selection of compounds
SUBJECT OF TEST: KRAS G12D (Homo sapiens, UniProt P01116, G12D)
Construct: host or cells: AsPC-1 human pancreatic cancer cells
Sequence (P01116 1-188 isoform P01116-2 G12D): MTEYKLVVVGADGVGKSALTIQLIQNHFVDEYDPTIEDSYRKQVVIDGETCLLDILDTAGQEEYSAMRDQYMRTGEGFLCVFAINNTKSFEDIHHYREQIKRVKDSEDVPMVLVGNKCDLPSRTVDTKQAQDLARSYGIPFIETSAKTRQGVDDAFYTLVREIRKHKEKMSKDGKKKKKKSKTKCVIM
PROTOCOL TEXT: Test Example 1-1: KRAS degradation action in AsPC-1, sandwich ELISA
Type: cell-based
PROTOCOL CONDITIONS: AsPC-1 cells, 24 hours treatment, corrected with β-actin, 0% = 10 μM Example No. 7
Supply the numeric figure in nM, leaving out any unit text.

Worked examples, 3 compounds total:
>>> recorded_number("Cc1ncsc1-c1ccc([C@H](CO)NC(=O)[C@@H]2C[C@@H](O)CN2C(=O)[C@H](C(C)C)N2Cc3cc(COc4c(-c5c(C)c(F)cc6[nH]ncc56)c(C5CC5)cc5c(N6C[C@@H]7C[C@H]6CN7)nc(OC6CCOCC6)nc45)ccc3C2=O)cc1 [Example 4]")
897
>>> recorded_number("Cc1c(F)cc2[nH]ncc2c1-c1c(C2CC2)cc2c(N3C[C@@H]4C[C@H]3CN4)nc(OC3CCOCC3)nc2c1OCc1ccc(-c2cn([C@H](C(=O)N3C[C@H](O)C[C@H]3C(=O)N[C@@H](CO)c3ccc(F)cc3)C(C)C)nn2)cc1 [Example 13]")
151
>>> recorded_number("Cc1ncsc1-c1ccc([C@H](CO)NC(=O)[C@@H]2C[C@@H](O)CN2C(=O)[C@H](C(C)C)n2cc(-c3ccc(COc4c(-c5c(C)c(F)cc6[nH]ncc56)c(C5CC5)cc5c(N6C[C@@H]7C[C@H]6CN7)nc(OC6CCN(C7COC7)CC6)nc45)cc3)nn2)cc1 [Example 24]")
103

Here's the next entry for you.
Q. Can you share its DC50? I mean this compound: Cc1ncsc1-c1ccc([C@H](CN(C)C)NC(=O)[C@@H]2C[C@@H](O)CN2C(=O)[C@H](C(C)C)n2cc(-c3ccc(COc4c(-c5c(C)c(F)cc6[nH]ncc56)c(C5CC5)cc5c(N6C[C@@H]7C[C@H]6CN7)nc(OC6CCOCC6)nc45)cc3)nn2)cc1 [Example 19]
A. 139

* * *

SUBJECT OF TEST: KRAS G12D (Homo sapiens, UniProt P01116, G12D)
Construct: host or cells: AsPC-1 human pancreatic cancer cells
PROTOCOL TEXT: Test Example 1-2: KRAS degradation action in AsPC-1, Cell ELISA
Type: cell-based
PROTOCOL CONDITIONS: AsPC-1 cells, overnight treatment, corrected with β-actin, 0% = 10 μM Example No. 26 (Example No. 8 for Example Nos. 74 and 75)
OUTCOME MEASURE: DC50 (nM)
Supply the numeric figure in nM, leaving out any unit text.

>>> recorded_number("Cc1ncsc1-c1ccc([C@H](CO)NC(=O)[C@@H]2C[C@@H](O)CN2C(=O)[C@H](C(C)C)n2cc(-c3ccc(COc4c(-c5c(C)c(F)cc6[nH]ncc56)c(C5CC5)cc5c(N6C[C@@H]7C[C@H]6CN7)nc(O[C@H](C)[C@@H](C)O)nc45)cc3)nn2)cc1 (atropisomer, axis not shown) [Example 37]")
25

Here's the next entry for you.
Q. I'm curious: which DC50 was measured for CO[C@@H](C)COc1nc(N2C[C@@H]3C[C@H]2CN3)c2cc(C3CC3)c(-c3c(C)c(F)cc4[nH]ncc34)c(OCc3ccc(-c4cn([C@H](C(=O)N5C[C@H](O)C[C@H]5C(=O)N[C@@H](CO)c5ccc(-n6ccnc6C)cc5)C(C)C)nn4)cc3)c2n1 [Example 71] tested on KRAS G12D (Homo sapiens, UniProt P01116, G12D)?
A. 35

* * *

SUBJECT OF TEST: KRAS G12D (Homo sapiens, UniProt P01116, G12D)
Construct: host or cells: AsPC-1 human pancreatic cancer cells
PROTOCOL TEXT: Test Example 1-1: KRAS degradation action in AsPC-1, sandwich ELISA
Assay type: cell-based
PROTOCOL CONDITIONS: AsPC-1 cells, 24 hours treatment, corrected with β-actin, 0% = 10 μM Example No. 7
OUTCOME MEASURE: DC50 (nM)

>>> recorded_number("Cc1c(F)cc2[nH]ncc2c1-c1c(C2CC2)cc2c(N3C[C@@H]4C[C@H]3CN4)nc(OC3CCOCC3)nc2c1OCc1ccc(-c2cn([C@H](C(=O)N3C[C@H](O)C[C@H]3C(=O)N[C@@H](CO)c3ccc(N4CCOC4=O)cc3)C(C)C)nn2)cc1 [Example 20]")
100

A = Cc1ncsc1-c1ccc([C@H](CO)NC(=O)[C@@H]2C[C@@H](O)CN2C(=O)[C@H](C(C)C)n2cc(-c3ccc(COc4c(-c5c(C)c(F)cc6[nH]ncc56)c(C5CC5)cc5c(N6C[C@@H]7C[C@H]6CN7)nc(OC6CCN(CC(F)F)CC6)nc45)cc3)nn2)cc1 [Example 21]
B = Cc1ncsc1-c1ccc([C@@H](NC(=O)[C@@H]2C[C@@H](O)CN2C(=O)[C@H](C(C)C)n2cc(-c3ccc(COc4c(-c5c(C)c(F)cc6[nH]ncc56)c(C5CC5)cc5c(N6C[C@@H]7C[C@H]6CN7)nc(OC6CCOCC6)nc45)cc3)nn2)C(F)F)cc1 [Example 16]
Q. Please indicate which item has the smaller measured DC50: A versus B Bench note: the answer is the label of the chosen record.
A. A
